Data origin, for the record: a protein production outcome set (Wang et al. 2014)

# Method summary: label from the status in PepcDB records
Quantity name: protein production

1) MSFVPSLPNLGRFWTAANALSLCRLALVVPITVFLWRDGPLGWLLGLVILVILTDWFDGRIARWTHSVSDWGKVIDPVADKFAAIMTVTALTFRPADPHLPLWFFGLVVGRDVAILLGGMAIARRSGQIVMSAWAGKAASLWLALTILSVILRADPPVFRVCLWMATGLFVFSFLLYVVRYLQATRNAEGATPDSVPQGP: failed
2) MAKKILILGAAGEIARMLTDRLLAESDAELVLYGRNVSQRLALEENSRIKLVDGTFGESEKLEAALAGVDVVYLNSMSSPADTASVVQALEKAGVKRLLGATIAGVEDEVPYELATWTKNSLPASYIKGEYDSAKIVRDSNLDYTLLRLTWLFNDESDREYELVPSGVEFADAEVSRQAITQAILDILNGEESEYVRKSFGLGKPNTHYGKPSFY: failed
3) DETQVLATVTQELANLFQLESCYIELYNTDCTAVSVVCEYAANQPTYQGLTRQIADFSEIYQPLLQKQHFQTIEIVPGWHPQLLVITQLACPIFDAQGMLGNLWLIRPIQQMLSQSEICLVQTLANLCAIAIRQAKLDATNQARLKKLEQRESLTNKFLRKLSQELRTPITSISLAAQTLETVLSPTI: failed

* * *

# Method summary: label from the status in PepcDB records
Quantity name: protein production

1) MEYYDIIIVGAGPAGSTLARALEDSGKRVLIIDKQAFPRDKTCAGWVTPAVMASLDIDPGKYSVGRTLQPIRRFRIGMMGQSAVENDHGDIVSYGIRRCEFDDYLLDRAECEKQLATAVKSINRNNGNWVINDQWQAPLLVGAGGHFCPVARLLGDGPGKHETVVAAKEVEFEMTPEQARACEARGDTPELWFCRDLKGYAWVFRKGSYLNIGLGREDNHRLSDHLEAFVEEMKQSGRIPSDLPGRFKGHAYLLYAHANRPLVDDGVLLIGDAAGLAYTQSGEGIRPAIESALMAANVIKAAPDYSALSLQSYGERIAERFGTRATDQQPGFEVPEWLKQPIASTLMRSHWFTRKVVTEKWFLHQEVPPLEVAV: failed
2) MSSRWEGIDEFVAVAESGQFTAAAERLGVSSSHISRQIARLEDRLQTRLLYRSTRRVTLSEAGQTFLQHCQRLQDGREEALRAMGDLASEPKGLLRMTCAVAYGERFIVPLVTRFMALYPQLRVDVELSNHTLDLLHEGMDLAIRLGRLADSRLVATRLAPRRMYLCVSPAYLERYGRPHSLSELARHNCLVGSSDLWALQQDGREISQRVQGNWRCNSGQAVLDAALQGIGLCQLPDYYVLEHLNSGALVSLLEAHQPPNTAVWALYPQQRHLSPKVRRLVDYLKEGLAGLPEYRFG: failed

* * *

# Method summary: label from the status in PepcDB records
Quantity name: protein production

1. MSLNYKNYTVMLVDDEQPILNSLKRLIKRLGCNIITFTSPLDALEALKGTSVQLVISDMRMPEMGGEVFLEQVAKSYPDIERVVISGYADAQATIDAVNRGKISRFLLKPWEDEDVFKVVEKGLQLAFLREENLRLQEETEAKNKQEGHHHHHH: not failed
2. MAVEEVIEMQGLSLDPTSHRVMAGEEPLEMGPTEFKLLHFFMTHPERVYSREQLLNHVWGTNVYVEDRTVDVHIRRLRKALEPGGHDRMVQTVRGTGYRFSTRF: not failed
3. MNSLPIADLLVSAVIAACIVLSAMRGVIAEAGSMAAWVVSFFFAKLFAASFADLAFASFQPRLFALALSFISLFVIACLIQKMLRSLLTSAVSAVGLGFANRILGGVFGALKGVLIVTLLVMLASKTDLPDTEEWRQSYTLPFFVSLSEAVLNHSGGTAETPEDD: failed
4. MLNATAFCLAYAGFAALSLGMDRHYEDVFDRALPRRRRLALRSLEWLGLALSLWASAGAWGWNYGTVEWIGILSLAGLLLIWLLTFWPRAALGAGGACALAAPVLALL: failed
5. MNRTMSSINVLSLPVFNRDASGYDALRRGLIPCFDAFYGTALDLIDDWRDAEKLRVLDLGAGTGLFTAMLLTRHPDAQIHLIDASEKMLEQARKRFDGNPAITYAVADMANTELGGPWDLIISALAIHHLEDIGKKHLFGEIRGALSEGGLFVNVEQVLGHDPEVEARYARTWLQQVRRLGVAEVEIAKAHERMSHDRCSPLENQLQWMRDTGFCEIDCSFKAWRFAVLSGRR: failed
6. AIYVDLPNRQLKVKVADRRVISTTDAERQAVTPPGLQEAINDLVKKYTLARAFVRPSGTEDIVRVYAEANSQESADRLAYEVSLLVFQLAGGIGERPQP: not failed
7. MGAIQFQTAPKLPVTVLLAAKNEAVNLPRCLAALGPAERVIVLDSHSTDATAEIARQHGAEVAQFDYRGGYPKKRQWALDTIPFGTPWILLLDADEVVPEDLWKEIGNVTRQPDADAYLITKGFHFLGRKFKHGGFSHSAVLLFKTGMARFEKLFDDDLNGLDMEIHERVVVDGRIGKLKTPLVHEDFKGLEAYITRHNKYSTWEAKVRHHYLTTGRYGEQTIKPRLFGNSQERRRFLKALIIRLPFEPQIWFIYHYLLRLGFLEGRPGLIASQIRAAYIAQARAKIYELRLNTPSRLEHHHHHH: failed
8. MKSARPRLSDAHGRRNCARRGRRPGHQPFWRLAMNIVRYPQFSTHALQNEIKHVFDRFFEHNSDTDESAVVTAQWVPRVDIKEEPKHFVLYADLPGIDPSQIEVQMDKGILSIKGERKSESSTETERFSRIERRYGSFHRRFALPDSADADGITASGHNGVLEIRIPKRPAATPRRIHVGNGQDTSDSTVQ: failed

* * *

# Method summary: label from the status in PepcDB records
Quantity name: protein production

1) MGVNSQKSQGEDVSPDSNIETKEGTYVGLADTHTIEVTVDNEPVSLDITEESTSDLDKFNSGDKVTITYEKNDEGQLLLKDIERANLEHHHHHH: failed
2) DLAPSRVESLTLIMTSSGAQGLPMPNAALLQLLARRGAPDREVALEQQADLLAALGSPQVKDDREQLLHQAAVSYDRAFNPEGVKRQIMAILAEPSRVELLNRLRLPVLVVHGTADPLLPVMHGVHVAAHIQGSQLRLIPGLAHRFQEAFKAPLLGAVLPYLKA: failed
3) MNRRDFLQFGLRGIVVAGLGKGFYNTTSEQVEIVRTSVKIRNLPAALQGLKIGLLTDLHASFVVSSETIRSAGRLLMAEKPDLIVMTGDYISGSTRFLSGSVGQFKKEYLSKCIDALSGLKAPLGIYGVLGNHDFWSGPESVKAICEAFTRQMGMVWLRNSSVEIRRGRGSLHLLGVDDYWEPSCSLAAACKGVDTDGIKILLSHNPDINDEIFLLRERIDLVLSGHTHGGQVVVPFLGQPVMPSKFGQKYRAGLVRDGDRQTYISRGVGCLLAPIRLNCPPEATVLTLTLEHHHHHH: not failed
4) MEGYRLLYPMRTYLIVSGHGEETNVMAADWVTVVSFDPFIVGVAVAPKRTTHKLIKKYGEFVISVPSLDVLRDVWIAGTKKGPSKLKEMSVTLIPSKKVKVPSIEEALANIECRVIDARSYGDHTFFVGEVVGYTYKDYAFEKGKPNLKAKFLAHVSWSEFVTFSEKVHKAE: not failed
5) MPSIVKGIIPPVLTPMKSDRSIDFEALERLVEHLIAGGVDGLFALGSSGEVAFLSDEDRATVIREIVRIAAGRVPVYAGVIDMQVNRMLGHIKAAEEAGVD: not failed
6) MIRNLYNKIKNCKLKIAAIILLIFLIVTGYIYYSRYFYVLRSPQRVKEFILSYGKFGFFAFFVMQMLQVVAFFIPGEIIQIAGGYIFGTFWGTVISLLGITAGSAVAFYLSNKLGRPFVKKISGKQNISFFEKLIKNGEIKYVITLIYLVPGLPKDILAYVCGITDLSLKDFIIYSTIGRFPGIFISAYFGNTITHGNIKMMVIIAVISVVLFGLGVFKGKYLLTKISSIRSKKQK: failed
7) MAVLGQLGFMIAFLSGGVAAGHFGLLTERRTDILTTLVFTVALPALIFRSTYDRPLQEIISPALLGGFWVIIALTITLGWLVHRRLESADRRSVSVVQSYHSNMGFLGLPLVAATMGSEATAVASVILGIGAVTHVPVTVFLLVRINGSDASLLSECRKLVTNPVLIALAAGITASVLSLSVPESLISALGPPAELALPVALLCIGATLDTDLPVSDLQKTVSVVGLKVLWMPALAWLVYSSLSMDTTALGAAVVMLGTPTAVSTYVYTTELGGDAAFASLNVFTSTVVSIGTLSLLVWLFT: failed

* * *

# Method summary: label from the status in PepcDB records
Quantity name: protein production

1) MTQHLTIAQTYLAAWNEEDNERRRHLVGQAWAENTRYVDPLMQGEGQQGIAAMIEAARQKFPGYRFVLAGTPDGHGNFTRFSWRLISPDGDDVAGGTDVVSLNTEGRIDNVVGFLDGAVS: not failed
2) MQELSPAELGEQVQDDDGPLVLDIRHEEDFQEWHIPGSRNVDVYDELTDDPEQAIEPLDDLPSDEQIVTVCAAGVVSQTATAVLRELGYDAVTLTDGMNGWSRVHRHAELPVDVDGTLVQVARPGKGCLSHVLVSDGEAAVFDPSHYLNEYDTVLDEYDAELVGVFDTHAHADHVSGAADLADRHDVPYYLHQKDALAVDATPLEDGQTVTVGRLDIEVIHTPGHSEGSVSFDVEGAALLTGDTLFHDSVGRVELGVEAGIEDADVEGNAATLYESLQRLLDRPDDALVLPAHDPGSPEPPVAATLAEVRERNDDLGRDREAFVEELASDIPDHPPNFERVKRTNVGQESVPEEELAELELGPNNCAAE: failed
3) MITFEKVTVENENVVKEMFRSHSLSEKQVQYCVKVDDTYIGVIDYRVQGETAILSQLIIHFDYQSYGYGTNTYFTFEMMMKERNVKEIKVLQTELTEPVKSFIESFGFNVEDG: failed
4) MPVEITVKELLEAGVHFGHERKRWNPKFARYIYAERNGIHIIDLQKTMEELERTFRFIEDLAMRGGTILFVGTKKQAQDIVRMEAERAGMPYVNQRWLGGMLTNFKTISQRVHRLEELEALFASPEIEERPKKEQVRLKHELERLQKYLSGFRLLKRLPDAIFVVDPTKEAIAVREARKLFIPVIALADTDSDPDLVDYIIPGNDDAIRSIQLILSRAVDLIIQARGGVVEPSPSYALVQEAEATETPEGESEVEA: not failed
5) MIRLPRAGTVLAVRGTAARSRRRLSTMARMPDTNTTDLWERRTQGPLLALAVLFAVAYALPVVMPDAPEQLLFACHVANWVVWAAFAIDYAVRLWLSEDRLRFVRSHPLALLAVLLPLLRPLRLLKLVSMLLLAGQRARMASQVRVTTYVAGSCLGLLVFGALAVLEVERGRPGASIQTLGDALWWAFTTMTTVGYGDMAPTTGLGRLLAIGLMLSGIALLGVVTANIAAWFISRFERDDAEERRQTAAIEALTEEVRALRAQVATLRAPQGAPSELNVLPAPTREHD: failed
6) MNTTEFDGISHAEGLCDKEFIGKAISYLYRYGQIYIGKKIEPYGIGSGQFPFLMRLYREDGINQESLSDYLKIDKGTTARAIQKLVDEGYVFRQRDEKDRRSYRVFLTEKGKKLEPDMKKIASEWGEILFSSFDDRQRREITNSLEIMFENGLKIM: not failed
7) MTQETALGAALKSAVQTMSKKKQTEMIADHIYGKYDVFKRFKPLALGIDQDLIAALPQYDAALIARVLANHCRRPRYLKALARGGKRFDLNNRFKGEVTPEEQAIAQNHPFVQQALQQQSAQAAAETLSVEAEAAESSAAE: not failed
